test system: prostate adenocarcinoma (PC-3); test: Cytotoxicity assay (resazurin reduction, 48 h), PC-3; assay type: cell-based, human; settings: human prostate adenocarcinoma, 48 h, resazurin, mean ± SD; read-out: IC50 PC-3
Measured pIC50, listed per entry for reference.
To interpret pIC50, take it as minus log10 of a concentration measured in moles per litre.

Please review the entries below; each comes with its answer.
C=C(C)[C@@H]1CC[C@]2(C(=O)O)CC[C@]3(C)[C@H](CC[C@@H]4[C@@]5(C)CC[C@H](O)C(C)(C)[C@@H]5CC[C@]43C)[C@@H]12 [Compound 2, Betulinic acid] :: 4.40
C=C(C)[C@@H]1CC[C@]2(C(=O)O[C@@H]3O[C@H](CO)[C@@H](O)[C@H](O)[C@H]3O)CC[C@]3(C)[C@H](CC[C@@H]4[C@@]5(C)CC[C@H](O[C@@H]6OC[C@H](O)[C@H](O)[C@H]6O)C(C)(C)[C@@H]5CC[C@]43C)[C@@H]12 [Compound 3] :: 4.17

[Q] Return value of pIC50 for input C=C(C)[C@@H]1CC[C@]2(C(=O)O[C@@H]3O[C@H](CO)[C@@H](O)[C@H](O)[C@H]3O)CC[C@]3(C)[C@H](CC[C@@H]4[C@@]5(C)CC[C@H](O[C@@H]6O[C@H](CO)[C@@H](O)[C@H](O)[C@H]6O)C(C)(C)[C@@H]5CC[C@]43C)[C@@H]12 [Compound 21b] , no commentary.
[A] 4.18

[Q] Return value of pIC50 for input C=C(C)[C@@H]1CC[C@]2(C(=O)O[C@@H]3O[C@H](CO)[C@@H](O)[C@H](O)[C@H]3O)CC[C@]3(C)[C@H](CC[C@@H]4[C@@]5(C)CC[C@H](O[C@@H]6O[C@@H](C)[C@H](O)[C@@H](O)[C@H]6O)C(C)(C)[C@@H]5CC[C@]43C)[C@@H]12 [Compound 19] , no commentary.
[A] 4.95

[Q] Return value of pIC50 for input C=C(C)[C@@H]1CC[C@]2(CO[C@@H]3O[C@@H](C)[C@H](O)[C@@H](O)[C@H]3O)CC[C@]3(C)[C@H](CC[C@@H]4[C@@]5(C)CC[C@H](O[C@@H]6O[C@@H](C)[C@H](O)[C@@H](O)[C@H]6O)C(C)(C)[C@@H]5CC[C@]43C)[C@@H]12 [Compound 22a] , no commentary.
[A] 5.74
